Just for reference, patent US20220185898A1 is where these values come from.

Give measured Kd for each item. Keep answers brief.
- target-entity: T1, mouse Sortilin Fc fusion protein (mouse; human, UniProt Q6PHU5 74-754)
- T1 construct: whole entry named; also called mSort-Fc
- test-method-notes: ForteBio, avid;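 also: whole IgG captured on AHQ sensors, then contacted with Sortilin Fc fusion antigen at 100 nM, followed by an off-rate phase in buffer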
A number alone suffices; assume nM.

Challenge: What measured Kd goes with S-58 (antibody, V domains shown, IgG) VH: QVQLQESGPGLVKPSETLSLTCAVSGYSISSGYYWGWIRQPPGKGLEWIGSIYHSGNTYYNPSLKSRVTISVDTSKNQFSLKLSSVTAADTAVYYCARGPPELGKMYFQHWGQGTLVTVSS VL: EIVLTQSPATLSVSPGERATLSCRASQSVSSNLAWYQQKPGQAPRLLIYGASTRATGIPARFSGSGSGTEFTLTISSLQSEDFAVYYCQQDRKGPLTFGGGTKVEIK ?
Response given: 0.8

Challenge: What measured Kd goes with S-69 (antibody, V domains shown, IgG) VH: QVQLQESGPGLVKPSQTLSLTCTVSGGSISSGGYYWSWIRQHPGKGLEWIGYIYYSGSTYYNPSLKSRVTISVDTSKNQFSLKLSSVTAADTAVYYCARDRGGTHFGADHYYYGMDVWGQGTMVTVSS VL: EIVMTQSPATLSVSPGERATLSCRASQSVSSSLAWYQQKPGQAPRLLIYGASTRATGIPARFSGSGSGTEFTLTISSLQSEDFAVYYCQQAADWPITFGGGTKVEIK ?
Response given: 20.1

Challenge: What measured Kd goes with S-10 (antibody, V domains shown, IgG) VH: QVQLVQSGAEVKKPGASVKVSCKASGYTFTSYGISWVRQAPGQGLEWMGWISAYNGNTNYAQKLQGRVTMTTDTSTSTAYMELRSLRSDDTAVYYCARDPGGYGPTLYYYYGMDVWGQGTTVTVSS VL: EIVMTQSPATLSVSPGERATLSCRASQSVSSNLAWYQQKPGQAPRLLIYGASTRATGIPARFSGSGSGTEFTLTISSLQSEDFAVYYCQQYADWPPITFGGGTKVEIK ?
Response given: 2.29

Challenge: What measured Kd goes with S-15 (antibody, V domains shown, IgG) VH: QVQLVQSGAEVKKPGASVKVSCKASGYTFTSYYMSWVRQAPGQGLEWMGIINPSGGSTSYAQKFQGRVTMTRDTSTSTVYMELSSLRSEDTAVYYCARDPSGIAAAGPASRYYYGMDVWGQGTTVTVSS VL: EIVMTQSPATLSVSPGERATLSCRASQSVSSNLAWYQQKPGQAPRLLIYGASTRATGIPARFSGSGSGTEFTLTISSLQSEDFAVYYCQQARLGPWTFGGGTKVEIK ?
Response given: 1.4

Challenge: What measured Kd goes with S-19 (antibody, V domains shown, IgG) VH: QVQLVQSGAEVKKPGSSVKVSCKASGGTFSSYAISWVRQAPGQGLEWMGGIIPIFGTASYAQKFQGRVTITADESTSTAYMELSSLRSEDTAVYYCARESRIPGSGYYYYYGMDVWGQGTTVTVSS VL: DIQMTQSPSSLSASVGDRVTITCRASQSISSYLNWYQQKPGKAPKLLIYSASSLQSGVPSRFSGSGSGTDFTLTISSLQPEDFATYYCQQTDGKPPTFGGGTKVEIK ?
Response given: 0.733
